Each recorded value in this set is attributed to paper PMC5823858.

system: AsegOR7 + MdesOrco; construct: gene OR7; heterospecific complex: A. segetum OR7 (V5 tag) with Mayetiola destructor Orco (c-myc tag), TREx/HEK293; with Odorant receptor coreceptor (Mayetiola destructor); assay: Fluo-4AM calcium fluorescence, plate reader; assay type: cell-based, Agrotis segetum; settings: agonist of OR; heterospecific mutant Orco co-expressed
pEC50: −log10 of the molar value.
property.label: pEC50

1. CCCC/C=C\CCCCOC(C)=O [(Z)-5-decenyl acetate] = 5.55

###

molecular target: DmelOR56a + MdesOrco (Drosophila melanogaster, UniProt Q9V8Y7); construct: heterospecific complex: D. melanogaster OR56a (V5 tag) with Mayetiola destructor Orco (c-myc tag), TREx/HEK293; with Odorant receptor coreceptor (Mayetiola destructor); assay: Fluo-4AM calcium fluorescence, plate reader; settings: agonist of OR; heterospecific Orco co-expressed
Sequence (Q9V8Y7 whole entry): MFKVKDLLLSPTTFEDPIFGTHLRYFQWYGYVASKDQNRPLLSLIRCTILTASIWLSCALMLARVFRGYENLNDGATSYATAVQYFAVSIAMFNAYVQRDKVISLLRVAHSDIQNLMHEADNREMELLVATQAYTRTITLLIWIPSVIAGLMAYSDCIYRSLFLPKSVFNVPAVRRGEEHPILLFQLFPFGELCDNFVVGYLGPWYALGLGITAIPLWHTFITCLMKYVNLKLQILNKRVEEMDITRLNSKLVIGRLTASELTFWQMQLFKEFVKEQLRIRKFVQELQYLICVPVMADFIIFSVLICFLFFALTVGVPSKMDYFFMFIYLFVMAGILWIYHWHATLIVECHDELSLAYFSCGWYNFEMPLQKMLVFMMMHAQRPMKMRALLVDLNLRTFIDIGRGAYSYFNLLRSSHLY
Sequence (A0A1D8GZG0 1-466 partner): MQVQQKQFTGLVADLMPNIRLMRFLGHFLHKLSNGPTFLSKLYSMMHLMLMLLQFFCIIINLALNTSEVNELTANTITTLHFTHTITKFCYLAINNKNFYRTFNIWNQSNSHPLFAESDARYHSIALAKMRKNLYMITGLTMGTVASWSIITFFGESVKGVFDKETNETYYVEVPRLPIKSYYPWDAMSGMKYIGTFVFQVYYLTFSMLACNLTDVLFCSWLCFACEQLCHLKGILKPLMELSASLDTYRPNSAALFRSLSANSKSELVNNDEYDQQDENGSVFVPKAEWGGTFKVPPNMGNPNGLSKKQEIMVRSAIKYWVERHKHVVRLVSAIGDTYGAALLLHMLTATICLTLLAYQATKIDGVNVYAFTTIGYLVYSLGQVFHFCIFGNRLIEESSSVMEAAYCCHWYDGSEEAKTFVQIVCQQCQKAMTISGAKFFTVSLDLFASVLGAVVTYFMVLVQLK
property.label: EC50

1. C[C@H]1CCC[C@@]2(C)CCCC[C@]12O = 93.5 nM
